The reported measurements were obtained from patent US20230407373A1.

Tested on: HCoV-OC43 gRNA and sgRNA
Type: binding
CONDITION CONTEXT: type n_48_v; 48 hpi; OC43 Probe II capture on infected cells
MEASURED METRIC: target (unweighted spectral count, OC43 Probe II)
Simply state the number, no unit and no words.

{"columns": ["MOLECULE", "ASSAY VALUE"],
 "data": [
  ["SRSF10 (protein, UniProt O75494 1-262, looked up) Serine/arginine-rich splicing …: MSRYLRPPNTSLFVRNVADDTRSEDLRREFGRYGPIVDVYVPLDFYTRRPRGFAYVQFEDVRDAEDALHNLDRKWICGRQIEIQFAQGDRKTPNQMKAKEGRNVYSSSRYDDYDRYRRSRSRSYERRRSRSRSFDYNYRRSYSPRNSRPTGRPRRSRSHSDNDRFKHRNRSFSRSKSNSRSRSKSQPKKEMKAKSRSRSASHTKTRGTSKTDSKTHYKSGSRYEKESRKKEPPRSKSQSRSQSRSRSKSRSRSWTSPKSSGH", 9]
]}

Would you kindly look at the next entry?
Query: target (unweighted spectral count, OC43 Probe II); subject: HNRNPA2B1 (protein, UniProt P22626 1-353, looked up) Heterogeneous nuclear …: MEKTLETVPLERKKREKEQFRKLFIGGLSFETTEESLRNYYEQWGKLTDCVVMRDPASKRSRGFGFVTFSSMAEVDAAMAARPHSIDGRVVEPKRAVAREESGKPGAHVTVKKLFVGGIKEDTEEHHLRDYFEEYGKIDTIEIITDRQSGKKRGFGFVTFDDHDPVDKIVLQKYHTINGHNAEVRKALSRQEMQEVQSSRSGRGGNFGFGDSRGGGGNFGPGPGSNFRGGSDGYGSGRGFGDGYNGYGGGPGGGNFGGSPGYGGGRGGYGGGGPGYGNQGGGYGGGYDNYGGGNYGSGNYNDFGNYNQQPSNYGPMKSGNFGGSRNMGGPYGGGNYGPGGSGGSGGYGGRSRY 86
